Tested on: ACHN renal
Assay: NCI tumour cell line growth inhibition, 48 h
Measurement name: GI50

molecule="COc1cc(NC(C)CCCNC2CN3CCC2CC3)c2ncccc2c1 (stereo not drawn)" recorded_value="14.7 µM"
molecule=COc1ccc2c(c1)c(=O)oc1cc(OC/C(C)=N\O)ccc12 recorded_value="29.9 µM"
molecule=CC(C)[C@H](N)C(=O)N1CCC[C@H]1B(O)O recorded_value="> 100 µM"

----------
Catalogue of TGI values
Tested on: SN12C renal
Assay: NCI tumour cell line growth inhibition, 48 h
Measurement name: TGI

compound=COc1ccc(/C(COc2ccc3c(=O)cc(-c4ccccc4)oc3c2)=N\O)cc1 measurement_name=TGI recorded_value="36.4 µM"
compound=COc1ccc(C(=O)c2cc(OC)c(OC)c(OC)c2)cc1OC(=O)CCl measurement_name=TGI recorded_value="> 100 µM"
compound=NN(CC(=O)O)CC(=O)O measurement_name=TGI recorded_value="> 100 µM"
compound=Nc1c(C(=O)c2cccc(-c3ccncc3)c2)cnn1-c1ccc(F)cc1F measurement_name=TGI recorded_value="> 25 µM"
compound=COc1cc(/C=C/C(=O)c2cccc(Nc3nc(Nc4ccccc4)nc(Nc4ccccc4)n3)c2)cc(OC)c1OC measurement_name=TGI recorded_value="> 100 µM"
compound="O=C1c2ccccc2C(O)(O)C1(O)C1(O)C(=O)c2ccccc2C1(O)O (stereo not drawn)" measurement_name=TGI recorded_value="30.6 µM"
compound=CSc1nc(C#N)c(/N=C\N(C)C)n1C measurement_name=TGI recorded_value="> 100 µM"
compound=O=C1Nc2ccccc2/C1=C/C(=O)c1coc2c1C(=O)c1ccccc1C2=O measurement_name=TGI recorded_value="> 100 µM"

----------
Catalogue of TGI values
Tested on: NCI-H23 lung
Assay: NCI tumour cell line growth inhibition, 48 h
Measurement name: TGI (µM)

molecule=C=C(C)C1=CCC[C@]2(C1)N=C(OC)[C@@H](C(C)C)N=C2OC units=µM relation_sign=> recorded_value=100
molecule=NN(CC(=O)O)CC(=O)O units=µM relation_sign=> recorded_value=100
molecule="c1ccc2c(c1)cc(C1NCCc3[nH]cnc31)c1ccccc12 (stereo unspecified)" units=µM relation_sign=> recorded_value=100
molecule=O=C(CN1CCCCC1)Nc1ccc2sc3ccccc3c(=O)c2n1 units=µM relation_sign== recorded_value=38.8
molecule=O=C1/C(=C\c2ccc(O)cc2)CCC/C1=C/c1ccc(Cl)c(Cl)c1 units=µM relation_sign== recorded_value=10.1
molecule=Cc1cc2c(cc1C)N(C(=O)CCl)CC(=O)N2 units=µM relation_sign== recorded_value=16.4

----------
Tested on: HOP-62 NSCLC
Assay: NCI tumour cell line growth inhibition, 48 h; in the data active means GI50 below about 0.43 µM; inactive means the rest
Possible outcomes: active, inactive

compound=O=[N+]([O-])O.[Cu+2].[NH-]CC[NH-].[NH-]CC[NH-] label=inactive
compound=CC(C)(C)n1cc(-c2ccnc(NCCCNS(=O)(=O)c3ccc(C(F)(F)F)cc3)c2)c(-c2cccc(O)c2)n1 label=inactive
compound=COc1c(C)c2c(c(O)c1C/C=C(\C)CCC(=O)O)C(=O)OC2 label=inactive
compound=C=C(C)C(=O)Nc1ccc(NC(C)C)cc1 label=inactive
compound="COc1ccc(C(=O)OC2C(OC3C(O)COC(O[C@H]4C[C@H]5[C@@H]6CC=C7C[C@@H](O)CC[C@]7(C)[C@H]6CC[C@]5(C)[C@H]4[C@H](C)C(=O)CCC(C)C)C3OC(N)=O)OCC(O)C2O)cc1 (some centres undefined)" label=active
compound=Cc1nn2c(/C=C3\C(=O)Nc4ccc(Cl)cc43)c(C)nc2s1 label=inactive
compound=CN(O)c1nc(N(C)O)nc(N2CCOCC2)n1 label=inactive
compound="C=C1CCC2C3(C)COC(c4ccc(N(C)C)cc4)OC3CCC2(C)C1C/C=C1/C(=O)OCC1O (centres undefined)" label=inactive
compound=c1ccc2[nH]c(-c3ccc(-c4nccc5c4[nH]c4ccccc45)cc3)nc2c1 label=inactive

Every entry's value here was drawn from PubChem BioAssay (NCI).
